Where do the numbers come from? From a collection of fitness landscapes (doi:10.1126/science.1257360).

B1: PhoQ; a variant is named by its letters at X, in order, P23837 (parent)
chain: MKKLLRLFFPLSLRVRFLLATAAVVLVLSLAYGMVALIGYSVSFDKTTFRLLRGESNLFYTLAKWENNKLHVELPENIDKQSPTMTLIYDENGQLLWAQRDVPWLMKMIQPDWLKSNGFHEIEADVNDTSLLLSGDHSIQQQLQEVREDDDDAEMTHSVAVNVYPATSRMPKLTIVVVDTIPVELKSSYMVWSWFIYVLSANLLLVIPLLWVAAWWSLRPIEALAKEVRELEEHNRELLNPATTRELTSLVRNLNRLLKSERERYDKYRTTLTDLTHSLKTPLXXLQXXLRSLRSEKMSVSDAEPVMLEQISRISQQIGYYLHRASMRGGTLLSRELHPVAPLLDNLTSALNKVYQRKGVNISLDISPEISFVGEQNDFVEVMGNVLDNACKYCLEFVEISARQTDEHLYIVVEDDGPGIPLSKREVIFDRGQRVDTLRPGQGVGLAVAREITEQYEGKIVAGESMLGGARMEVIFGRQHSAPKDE

Variants of: B1
Test: enrichment ratio after two sorts for PhoP signalling (ratio (wild type AVST 3.29)); higher = more functional
Conditions: with PhoP (E. coli)
In all, about 140,000 sequences were measured (“enrichment ratio after two sorts for PhoP signalling”: median about 0, highest 2% from about 11 on). Many of the other results were omitted from the sample, so the highest values are more common in it than they were.
Here, each record is paired with measured enrichment ratio data.

- IMGQ: ≤ 0.25
- STQM: 12.8
- FGWM: ≤ 0.25
- GNII: 8.44
- YTQM: ≤ 0.25
- SKMA: 3.27
- SNSR: ≤ 0.25
- LANA: ≤ 0.25

[ask] Field request: enrichment ratio | item: `LSWM`
[reply] 2.98

[ask] Field request: enrichment ratio | item: `TNCW`
[reply] ≤ 0.25

[ask] Field request: enrichment ratio | item: `YTII`
[reply] ≤ 0.25

[ask] Field request: enrichment ratio | item: `QSKK`
[reply] ≤ 0.25

[ask] Field request: enrichment ratio | item: `SISI`
[reply] 19.1

[ask] Field request: enrichment ratio | item: `FERS`
[reply] ≤ 0.25

[ask] Field request: enrichment ratio | item: `DVMK`
[reply] ≤ 0.25
